# Assayed Target: human DA transporters [(h)DAT] (Homo sapiens, UniProt Q01959)
# Construct: expressed in transfected cells; host or cells: HEK-293
# Sequence (Q01959 whole entry): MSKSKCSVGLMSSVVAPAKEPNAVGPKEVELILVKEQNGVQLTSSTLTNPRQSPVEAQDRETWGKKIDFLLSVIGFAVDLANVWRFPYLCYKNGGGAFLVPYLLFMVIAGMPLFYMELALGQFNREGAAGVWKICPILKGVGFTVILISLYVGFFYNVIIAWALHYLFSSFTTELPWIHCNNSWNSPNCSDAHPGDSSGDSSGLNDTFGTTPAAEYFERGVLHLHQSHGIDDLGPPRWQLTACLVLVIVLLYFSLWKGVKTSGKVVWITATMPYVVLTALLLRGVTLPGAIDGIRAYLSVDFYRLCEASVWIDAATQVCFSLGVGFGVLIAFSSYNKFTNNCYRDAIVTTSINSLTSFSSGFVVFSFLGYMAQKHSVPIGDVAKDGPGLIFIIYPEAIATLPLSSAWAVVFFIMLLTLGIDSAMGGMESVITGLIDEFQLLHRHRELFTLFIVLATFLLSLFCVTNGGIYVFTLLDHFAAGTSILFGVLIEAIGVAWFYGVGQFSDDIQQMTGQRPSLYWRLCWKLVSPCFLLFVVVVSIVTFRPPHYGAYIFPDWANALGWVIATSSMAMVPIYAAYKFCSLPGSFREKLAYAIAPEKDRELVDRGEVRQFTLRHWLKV
# Run Description: Inhibition of [3H]dopamine uptake into HEK293 cells stably expressing hDAT
# Type: cell-based
# Stated Conditions: HEK293-hDAT; mean ± standard error of three independent experiments; read-out: monoamine uptake inhibition IC50 [3H]DA
I'd be grateful if you could share measured IC50 for these entries.
Give bare numbers, in nM.

C[C@@H]1NC(C)(C)CO[C@@]1(O)c1cccc(F)c1	1380
C[C@@H]1NC(C)(C)CO[C@@]1(O)c1ccc2ccccc2c1	453

Batch lookup, IC50 per entry.
1. C[C@@H]1NC(C)(C)CO[C@@]1(O)c1cccc(Br)c1
2. C[C@@H]1NC(C)(C)CO[C@@]1(O)c1ccc(Cl)cc1
3. Cc1cccc([C@]2(O)OCC(C)(C)N[C@H]2C)c1

### Response
[3340, 285, 2600]

====

# Assayed Target: α4β4-nAChR (Homo sapiens, UniProt P30926+P43681)
# Sequence (P43681 29-627 limits assumed): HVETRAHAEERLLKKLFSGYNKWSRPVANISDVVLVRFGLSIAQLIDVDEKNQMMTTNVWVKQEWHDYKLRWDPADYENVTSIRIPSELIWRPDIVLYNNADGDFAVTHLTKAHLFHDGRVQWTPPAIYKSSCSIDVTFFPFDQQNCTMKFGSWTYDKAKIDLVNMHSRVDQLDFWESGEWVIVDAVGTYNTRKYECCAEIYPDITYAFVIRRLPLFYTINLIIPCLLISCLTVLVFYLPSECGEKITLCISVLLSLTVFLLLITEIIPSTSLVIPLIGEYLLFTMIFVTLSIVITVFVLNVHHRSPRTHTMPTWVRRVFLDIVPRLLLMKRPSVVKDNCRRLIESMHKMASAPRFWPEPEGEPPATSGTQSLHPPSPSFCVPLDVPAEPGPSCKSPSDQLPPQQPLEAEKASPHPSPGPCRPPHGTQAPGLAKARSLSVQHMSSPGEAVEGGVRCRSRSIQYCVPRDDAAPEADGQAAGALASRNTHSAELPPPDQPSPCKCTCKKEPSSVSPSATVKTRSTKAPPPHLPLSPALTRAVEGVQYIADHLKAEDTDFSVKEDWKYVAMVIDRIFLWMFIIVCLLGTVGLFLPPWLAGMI
# Sequence (P30926 22-498): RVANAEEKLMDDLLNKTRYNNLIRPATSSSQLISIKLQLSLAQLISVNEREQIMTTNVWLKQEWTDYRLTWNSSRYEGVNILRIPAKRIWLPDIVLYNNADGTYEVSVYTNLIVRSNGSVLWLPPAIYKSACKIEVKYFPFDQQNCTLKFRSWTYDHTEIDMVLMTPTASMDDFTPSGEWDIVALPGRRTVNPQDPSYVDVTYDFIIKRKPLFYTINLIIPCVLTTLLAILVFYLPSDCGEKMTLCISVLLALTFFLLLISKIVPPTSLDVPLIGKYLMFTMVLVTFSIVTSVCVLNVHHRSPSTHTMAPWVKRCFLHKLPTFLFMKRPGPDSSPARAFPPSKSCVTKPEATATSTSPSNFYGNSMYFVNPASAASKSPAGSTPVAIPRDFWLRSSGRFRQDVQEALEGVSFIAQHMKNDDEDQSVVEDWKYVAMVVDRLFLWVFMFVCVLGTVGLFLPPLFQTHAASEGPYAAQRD
# Run Description: 86Rb+ efflux nAChR functional assay, SH-EP1-hα4β4 cells
# Stated Conditions: EC80-EC90 carbamylcholine, parentheses = S.E.M. as multiplication/division factor, read-out: nAChR inhibition IC50 α4β4
Measured Quantity: IC50 (µM)
One number for each entry, in µM.

CC[C@@H]1NC(C)(C)CO[C@@]1(O)c1cccc(Cl)c1 [Compound 4s]	16

Consider the record given below.
Lab note: measured IC50 of C[C@@H]1NC(C)(C)CO[C@@]1(O)c1cccc([N+](=O)[O-])c1 [Compound 4g] was 80

====

# Assayed Target: α4β4-nAChR (Homo sapiens, UniProt P30926+P43681)
# Run Description: 86Rb+ efflux nAChR functional assay, SH-EP1-hα4β4 cells
# Stated Conditions: EC80-EC90 carbamylcholine, parentheses = S.E.M. as multiplication/division factor, read-out: nAChR inhibition IC50 α4β4
Please provide measured pIC50 for the entries that follow.
One number for each entry, as −log10 of the molar value.

I would be grateful if you could provide pIC50 for each of the following entries.
1. C[C@@H]1NC(C)(C)CO[C@@]1(O)c1cc(F)cc(F)c1
2. C[C@@H]1NC(C)(C)CO[C@@]1(O)c1ccc2ccccc2c1
3. C[C@@H]1NC(C)(C)CO[C@@]1(O)c1ccc(Cl)cc1
4. Cc1ccc([C@]2(O)OCC(C)(C)N[C@H]2C)cc1

### Response
[4.21, 4.96, 4.48, 4.21]

====

# Assayed Target: 5HT transporters [(h)SERT] (Homo sapiens, UniProt P31645)
# Construct: expressed in transfected cells; host or cells: HEK-293
# Sequence (P31645 whole entry): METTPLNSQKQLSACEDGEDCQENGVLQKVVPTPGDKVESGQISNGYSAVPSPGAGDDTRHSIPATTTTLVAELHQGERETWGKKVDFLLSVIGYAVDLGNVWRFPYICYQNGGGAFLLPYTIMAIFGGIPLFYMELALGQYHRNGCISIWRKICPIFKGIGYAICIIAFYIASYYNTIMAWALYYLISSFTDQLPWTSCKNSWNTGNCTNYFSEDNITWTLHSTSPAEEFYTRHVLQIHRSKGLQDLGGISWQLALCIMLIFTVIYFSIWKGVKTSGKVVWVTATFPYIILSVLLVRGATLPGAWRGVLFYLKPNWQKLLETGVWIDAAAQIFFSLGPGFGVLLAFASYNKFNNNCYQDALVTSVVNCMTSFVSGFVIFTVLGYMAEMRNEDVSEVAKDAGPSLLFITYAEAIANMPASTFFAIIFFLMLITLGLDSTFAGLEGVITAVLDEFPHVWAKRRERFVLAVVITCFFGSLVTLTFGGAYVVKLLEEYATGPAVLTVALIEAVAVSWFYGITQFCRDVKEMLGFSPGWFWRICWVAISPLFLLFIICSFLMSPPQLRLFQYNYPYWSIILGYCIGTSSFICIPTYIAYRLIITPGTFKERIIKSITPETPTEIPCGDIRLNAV
# Run Description: Inhibition of [3H]serotonin uptake into HEK293 cells stably expressing hSERT
# Type: cell-based
# Stated Conditions: read-out: monoamine uptake inhibition IC50 [3H]5HT
Measured Quantity: IC50 (nM)
One number for each entry, in nM.

C[C@@H]1NC(C)(C)CO[C@@]1(O)c1ccc2ccccc2c1	334

# batch size: 2; output IC50 per entry
1. CC[C@@H]1NC(C)(C)CO[C@@]1(O)c1cccc(Cl)c1
2. C[C@@H]1NC(C)(C)CO[C@@]1(O)c1cccc2ccccc12

### Response
1: 2500; 2: 1560

// provenance: patent US8906908B2
